Tested on: W2
Test: qHTS profiling for inhibitors of Plasmodium falciparum proliferation (AID 504749); further: nearly all actives have a fitted effect of over 60% in size; further: potency means the concentration at half of the fitted maximal effect
Conditions: P. falciparum in erythrocytes, SYBR Green DNA, 72 h; series mostly up to 28.7 µM
Records with an inconclusive call do not appear. The source made the active and inactive calls. The call rests on the fitted dose curve; in most records, active means well fitted inhibition curve with a large enough effect; inconclusive means small, poorly fitted or top-dose-only effect; inactive means flat fitted curve, though single readings scatter.
Measured quantity: Potency

// solved cases for Potency follow
compound=C[C@H](O)C(=O)Nc1c(I)c(C(=O)NC(CO)CO)c(I)c(C(=O)NC(CO)CO)c1I measured_on=W2 endpoint_value=inactive
compound=O=C(N/N=C/c1ccccc1O)c1ccncc1 measured_on=W2 endpoint_value="6.01 µM (active)"
compound=N[C@H](Cc1c[nH]c2ccccc12)C(=O)O measured_on=W2 endpoint_value=inactive
compound=CN=C(NC#N)NCCSCc1csc(N=C(N)N)n1 measured_on=W2 endpoint_value=inactive
compound=OC(CCN1CCCCC1)(c1ccccc1)c1ccccc1 measured_on=W2 endpoint_value="4.26 µM (active)"

Exam item: State, in one line, measured Potency of CO/N=C1\CN(c2nc3c(cc2F)c(=O)c(C(=O)O)cn3C2CC2)CC1CN (stereo not given)
Marked response: 5.36 µM (active)

###

Test system: astro
Experiment: Drug repurposing screens with cells derived from glioblastoma tumor samples (AID 1345199); further: nearly all actives have a fitted effect of over 40% in size
Details: viability, ATP luminescence, 48 h; series mostly up to 45.9 µM
Results filed as inconclusive are left out. Active and inactive are the calls of the source. The call rests on the fitted dose curve; in most records, active means well fitted inhibition curve with a large enough effect; inconclusive means small, poorly fitted or top-dose-only effect; inactive means flat fitted curve, though single readings scatter.
Answer with one of the outcomes yes for active, no for inactive

Some entries whose results are on file:
molecule=CCCCCCC[N+](CC)(CC)CCCCc1ccc(Cl)cc1 category_label=yes
molecule=CC1(C)O[C@@H]2C[C@H]3[C@@H]4C[C@H](F)C5=CC(=O)CC[C@]5(C)[C@H]4[C@@H](O)C[C@]3(C)[C@]2(C(=O)CO)O1 category_label=no
molecule="COc1cc2c(cc1OC)C(C(C(=O)N(CCc1ccc(OC)c(OC)c1OC)CCc1ccc(OC)c(OC)c1OC)c1ccccc1)=NCC2 (stereo unspecified)" category_label=no
molecule=CC[C@@H](CO)NCCN[C@@H](CC)CO category_label=no
molecule=OCc1ccccc1O category_label=no

Exam item: I'd appreciate the recorded outcome for CCN(CC)CCOC(=O)C(c1ccccc1)C1CCCCC1 (stereo unspecified) from this test.
Marked response: no

###

Test system: N140
Assay: qHTS profiling for inhibitors of Plasmodium falciparum proliferation (AID 504749); further: nearly all actives have a fitted effect of over 60% in size
Details: P. falciparum in erythrocytes, SYBR Green DNA, 72 h; series mostly up to 28.7 µM
Records with an inconclusive call do not appear. Activity calls are given as the source filed them. The call rests on the fitted dose curve; in most records, active means well fitted inhibition curve with a large enough effect; inconclusive means small, poorly fitted or top-dose-only effect; inactive means flat fitted curve, though single readings scatter.
Answer with one of the outcomes given here: active, inactive

Some entries whose results are on file:
molecule=CCCCCCCCCCCCCCCCOP(=O)([O-])OCC[N+](C)(C)C category_label=inactive
molecule=O=C(Nc1ccc(Cl)c(Cl)c1)C1CC1 category_label=inactive
molecule=CCCCc1nc(Cl)c(CO)n1Cc1ccc(-c2ccccc2-c2nn[nH]n2)cc1 category_label=active
molecule=O=C1c2ccccc2C(=O)C1c1ccccc1 category_label=inactive
molecule=CC1(C)CCC(NC(=O)[C@@H](N)CCC(=O)O)CC1 category_label=inactive

Exam item: Name the outcome recorded for CCCCOc1cc(C(=O)NCCN(CC)CC)c2ccccc2n1 in the assay.
Marked response: inactive

Exam item: Write down the call the test reported for this molecule. Item: O=C(CCN1CCC(c2ccccc2)C1)c1ccc2c(c1)OCCO2 (stereo not drawn)
Marked response: inactive

Exam item: Please state the recorded outcome for this molecule: N[C@H](Cc1c[nH]c2ccccc12)C(=O)O
Marked response: inactive

Exam item: State the result this test recorded for Cc1cc(O)c(C(C)C)cc1Cl .
Marked response: inactive

Exam item: Which outcome was assigned to CC(=O)N(O)CCCCCNC(=O)CCC(=O)N(O)CCCCCNC(=O)CCC(=O)N(O)CCCCCN in this test?
Marked response: inactive

Exam item: Test call, this molecule: C1CCc2nnnn2CC1
Marked response: inactive

Exam item: Entry COC(=O)[C@@H]1CC2=CC(=O)CC[C@]2(C)[C@@]23O[C@@H]2C[C@@]2(C)[C@@H](CC[C@@]24CCC(=O)O4)[C@H]13 : call = ?
Marked response: inactive

Exam item: // return assay outcome for CCN(CC)C(=O)/C(C#N)=C/c1cc(O)c(O)c([N+](=O)[O-])c1
Marked response: inactive

Exam item: Could you check what this test reported for CN=C(NC#N)NCCSCc1csc(N=C(N)N)n1 ?
Marked response: inactive

Exam item: // return assay outcome for CC(=O)c1ccc2c(c1)N(CCCN1CCC(CCO)CC1)c1ccccc1S2
Marked response: inactive

Exam item: Name the outcome recorded for Cc1c(C(C)C)c(=O)n(-c2ccccc2)n1C in the assay.
Marked response: inactive

Exam item: What is the recorded call for this molecule in the test? CCCCC1=NC2(CCCC2)C(=O)N1Cc1ccc(-c2ccccc2-c2nn[nH]n2)cc1
Marked response: inactive

Exam item: Please let me know the test result on file for CN(C)CCCOc1nn(Cc2ccccc2)c2ccccc12 .
Marked response: inactive
